The reported numbers originate from patent US20210040189A1.

SYSTEM UNDER TEST: T1, human DKK1 (human, UniProt O94907 32-266)
T1 construct: also called huDKK1; hDKK1
T1 sequence: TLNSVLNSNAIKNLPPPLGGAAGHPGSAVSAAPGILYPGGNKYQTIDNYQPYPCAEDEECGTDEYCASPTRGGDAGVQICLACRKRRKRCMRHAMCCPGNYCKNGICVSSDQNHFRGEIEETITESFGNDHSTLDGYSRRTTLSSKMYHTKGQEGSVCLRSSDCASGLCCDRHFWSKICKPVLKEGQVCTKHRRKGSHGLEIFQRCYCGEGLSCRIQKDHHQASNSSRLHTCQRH
EXPERIMENT NOTES: BiaCore 2000
Measured koff of individual entries
// units = s⁻¹; emit number, no label

5.17.1 (antibody, V domains shown, Fully human hybridoma IgG, kappa (Vk)) VH: QVQLQESGPGLVKPSETLSLTCTVSGGSISSYYWSWIRQPPGKGLEWIGYIYYSGNTNYNPSLKSRVTISVDTSKNQFSLKLRSVTAADTAVYYCARYNWNNDLFDYWGQGTLVTVSS VL: DIQMTQSPSSLSASVGDRVTITCQASQDINNYLNWYQQKPGKAPNLLIYDASNLETGVPSRFSGSGSGTDFTFTISSLQPADIATYYCQQYDDFPLTFGGGTKVEIK
0.000303
5.78.1 (antibody, V domains shown, Fully human hybridoma IgG, kappa (Vk)) VH: QVQLVESGGGVVQPGRSLRLSCAASGFTFSSYGMHWVRQAPGKGLEWVAVILYDGSDNYYADSVKGRFTISRDNSKNTLYLQMNSLRAEDTAVYYCAREGIAVAGDYYYYGMDVWGQGTTVTVSS VL: EIVLTQSPGTLSVSPGERATLSCRASQSVSSSYLAWYQQKPGQAPRLLIYGASGRATGIPDRFSGSGSGTDFILTISRLEPEDFAVYYCQQYGSSFTFGGGTKVEIK
0.000191

Turning to the following binder.
Query: Endpoint output: koff of 5.76.1 (antibody, V domains shown, Fully human hybridoma IgG, lambda (Vl)) VH: QLQLQESGPGLVKPSETLSLTCTVSGGSISSSNYYWGWIRQPPGKGLEWIGTIYYSGSTYYTPSLKSRVTISVDTSKNQFSLKLSSVTAADTAVYYCARERAIAVAAIVFFDYWGQGTLVTVSS VL: SYVLTQPPSVSVAPGQTARITCGGNNIGSESVHWYQQKPGQAPVLVVYDDSDRPSGIPERFSGSNSGNTATLTISRVEAGDEADYYCQVWDSSNDHVVFGGGTKLTVL . Value?
Result: 0.000241
